Taken from ChEMBL document CHEMBL1142234.

- assay.text: Inhibition of delta17 Arf1 using ARNO4M
- experimental.parameters: read-out: Ki app
reported.property: pKi
For clarity, pKi is expressed as the negative log10 of concentration in mol/L.

Q. Specify measured pKi for C[C@H]1CCC/C=C/[C@@H]2C[C@H](O)C[C@H]2[C@H](O)/C=C/C(=O)O1 [BREFELDIN A] .
A. 4.82
